Hey, just so you know, these numbers are from patent US20260015360A1.

Tested on: DLD1 BRCA2 (−/−) cells
Assay: DLD1 viability assay (CellTiter-Glo, 7 days), DLD1 BRCA2 (−/−)
Assay type: cell-based
Conditions: Homo sapiens, DLD-1, 168 h, read-out: Viability IC50 (μM) DLD1 BRCA2 null
Procedure: The seeding densities are pre-determined from the growth curve kinetics performed to ensure log linear phase of cell growth for these 2 cell lines. These assay plates are then placed in the incubator at 37° C., 5% CO2, relative humidity>90% for a few hours before addition of test compounds. […] These plates are then incubated for 30 minutes in the dark at RT before measuring luminescence using Spectramax/Enspire/Ensight/Envision/PheraSTAR.

Molecule: COc1cnc(Cl)cc1-c1cc(C)ncc1C(=O)Nc1nc2ncc(N3CCC(OC4CC4)CC3)nc2s1
IC50: 0.001 to 0.1 µM

Molecule: COc1cnc(Cl)cc1-c1cc(C)ncc1C(=O)Nc1nc2ncc(N3CCC(C4COC4)CC3)nc2s1
IC50: 0.001 to 0.1 µM

Molecule: COc1cnc(Cl)cc1-c1cc(C)ncc1C(=O)Nc1nc2ncc(N3CCC4(CCO4)CC3)nc2s1
IC50: 0.001 to 0.1 µM

Molecule: COc1cnc(Cl)cc1-c1cc(C)ncc1C(=O)Nc1nc2ncc(N3CCC(C4CC4)CC3)nc2s1
IC50: 0.001 to 0.1 µM

Molecule: COc1cnc(Cl)cc1-c1cc(C)ncc1C(=O)Nc1nc2ncc(N3CCCCC3)nc2s1
IC50: 0.001 to 0.1 µM

Molecule: COc1nnc(C(F)F)cc1-c1cc(C)ncc1C(=O)Nc1nc2ncc(-c3ccnc(C)c3)nc2s1
IC50: 0.1 to 0.25 µM

Molecule: COc1cnc(Cl)cc1-c1cc(C)ncc1C(=O)Nc1nc2ncc(N3CCC(CC#N)CC3)nc2s1
IC50: 0.001 to 0.1 µM

Molecule: COc1cnc(Cl)cc1-c1cc(C)ncc1C(=O)Nc1nc2ncc(N3CCN(CC(F)(F)F)CC3)nc2s1
IC50: 0.001 to 0.1 µM

Molecule: COc1cnc(Cl)cc1-c1cc(C)ncc1C(=O)Nc1nc2ncc(N3CC[C@](C)(OC)[C@H](F)C3)nc2s1 (single isomer, unassigned)
IC50: 0.1 to 0.25 µM

---

System: DLD1 BRCA2 (−/−) cells
Experiment: DLD1 viability assay (CellTiter-Glo, 7 days), DLD1 BRCA2 (−/−)
Type: cell-based
Conditions: Homo sapiens, DLD-1, 168 h, read-out: Viability IC50 (μM) DLD1 BRCA2 null
Property Measured: IC50

Molecule: COc1ccccc1-c1cc(C)ncc1C(=O)Nc1nc2ccc(N3CCCCC3)cc2s1
Assay Value: 0.5 to 2 µM
--
Molecule: COc1cnc(Cl)cc1-c1cc(C)ncc1C(=O)Nc1nc2ncc(N3CCO[C@H](C)C3)nc2s1
Assay Value: 0.001 to 0.1 µM
--
Molecule: COc1cnc(Cl)cc1-c1cc(C)ncc1C(=O)Nc1nc2ncc(N3CC[C@H](OC)[C@@H](F)C3)nc2s1
Assay Value: 0.001 to 0.1 µM
--
Molecule: COc1cnc(Cl)cc1-c1cc(C)ncc1C(=O)Nc1nc2ncc([C@H]3CCN(CC(F)(F)F)C3)nc2s1 (single isomer, unassigned)
Assay Value: 0.1 to 0.25 µM
--
Molecule: COc1cnc(Cl)cc1-c1cc(C)ncc1C(=O)Nc1nc2ncc([C@H]3CCO[C@@H](C)C3)nc2s1 (single isomer, unassigned) [Example 434A]
Assay Value: 0.001 to 0.1 µM
--
Molecule: COc1cnc(Cl)cc1-c1cc(C)ncc1C(=O)Nc1nc2ncc(C3=CCC(C)(C#N)CC3)nc2s1 (stereo not shown)
Assay Value: 0.001 to 0.1 µM
--
Molecule: COc1cnc(Cl)cc1-c1cc(C)ncc1C(=O)Nc1nc2ncc(N3CCO[C@@H](C(F)(F)F)C3)nc2s1
Assay Value: 0.001 to 0.1 µM
